Measured IC50 of individual entries
target: BTK enzyme (recombinant full-length BTK, hBTK) (Homo sapiens (Human), UniProt Q06187); test: BTK enzymatic activity LANCE TR-FRET assay; details: 50 pM hBTK, 25 μM ATP, 2 μM biotin-A5-peptide; compound range 1 μM to 0.017 nM; read-out: BTK binding IC50
Sequence (Q06187 whole entry): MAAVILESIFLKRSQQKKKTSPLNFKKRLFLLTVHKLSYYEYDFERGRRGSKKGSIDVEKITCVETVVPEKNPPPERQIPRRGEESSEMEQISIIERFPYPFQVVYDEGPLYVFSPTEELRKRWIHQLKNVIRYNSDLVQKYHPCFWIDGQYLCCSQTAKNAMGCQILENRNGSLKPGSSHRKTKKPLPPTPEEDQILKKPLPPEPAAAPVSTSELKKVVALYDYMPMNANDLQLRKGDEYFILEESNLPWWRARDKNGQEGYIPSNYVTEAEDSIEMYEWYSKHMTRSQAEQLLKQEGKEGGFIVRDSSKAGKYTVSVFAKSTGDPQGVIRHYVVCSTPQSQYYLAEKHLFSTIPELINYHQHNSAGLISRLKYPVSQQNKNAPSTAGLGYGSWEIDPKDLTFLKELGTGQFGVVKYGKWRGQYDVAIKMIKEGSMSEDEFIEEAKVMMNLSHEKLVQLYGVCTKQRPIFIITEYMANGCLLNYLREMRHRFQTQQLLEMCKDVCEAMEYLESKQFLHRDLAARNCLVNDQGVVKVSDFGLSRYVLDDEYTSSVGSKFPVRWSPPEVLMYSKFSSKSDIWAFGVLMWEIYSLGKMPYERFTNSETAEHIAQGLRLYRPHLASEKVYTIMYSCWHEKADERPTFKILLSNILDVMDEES

{"columns": ["Compound", "IC50 [nM]"],
 "data": [
  ["CC(O)(c1ccc(-c2nc([C@@H]3CC[C@H]4CCC(=O)N4C3)n3ccnc(N)c23)cc1)C1CC2CCC1CC2 (stereo partly shown) [Example 143]", 900],
  ["CC(O)(c1ccc(F)cc1)c1ccc(-c2nc([C@@H]3CC[C@H]4CCC(=O)N4C3)n3ccnc(N)c23)cc1 (stereo partly shown)", 170],
  ["C[C@@](O)(c1ccc(-c2nc([C@H]3CC[C@@H]4N(C3)C(=O)CCC4(F)F)n3ccnc(N)c23)cc1)c1cccc(C(F)(F)F)c1", 89],
  ["CC(O)(c1ccc(-c2nc([C@@H]3CC[C@H]4CCC(=O)N4C3)n3ccnc(N)c23)cc1)c1cccc(F)c1 (stereo partly shown)", 7.3],
  ["C[C@@](O)(c1ccc(-c2nc([C@H]3CN4C(=O)CC[C@@H]4CO3)n3ccnc(N)c23)cc1)c1cccc(C(F)(F)F)c1", 7.2],
  ["C[C@@](O)(c1ccc(-c2nc([C@@H]3CC[C@H]4CCC(=O)N4C3)n3ccnc(N)c23)cc1)c1cccc(C(F)(F)F)c1", 884],
  ["CC(O)(c1cccc(C(F)F)c1)c1ccc(-c2nc([C@@H]3CC[C@H]4CCC(=O)N4C3)n3c(F)cnc(N)c23)c(F)c1 (stereo partly shown) [Example 208]", 1.6],
  ["Nc1ncc(Cl)n2c([C@@H]3CC[C@H]4CCC(=O)N4C3)nc(-c3ccc(C(O)c4cc(C(F)(F)F)ccc4F)cc3)c12 (stereo partly shown) [Example 126]", 1000],
  ["C[C@@](O)(c1ccc(-c2nc([C@@H]3CC[C@H]4CCC(=O)N4C3)n3ccnc(N)c23)cc1)c1cccc(C2CCC2)c1", 0.12],
  ["Nc1nccn2c([C@@H]3CC[C@H]4CCC(=O)N4C3)nc(-c3ccc(C(O)(c4cccc(C(F)(F)F)c4)C(F)(F)F)cc3)c12 (stereo partly shown)", 9.8],
  ["CC(C)C(C)(O)c1ccc(-c2nc([C@@H]3CC[C@H]4CCC(=O)N4C3)n3ccnc(N)c23)cc1 (stereo partly shown)", 256],
  ["CC(O)(c1cccc(C(F)F)c1)c1ccc(-c2nc([C@@H]3CC[C@@H]4N(C3)C(=O)CC4(C)C)n3ccnc(N)c23)c(F)c1 (stereo partly shown) [Example 202]", 0.16],
  ["Nc1nccn2c([C@@H]3CC[C@H]4CCC(=O)N4C3)nc(-c3ccc(C(O)(c4cccc(C(F)(F)F)c4)C(F)F)cc3)c12 (stereo partly shown) [Example 112]", 5.6]
]}
